# assayedTarget: human adrenergic-α2C receptor (Homo sapiens)
# Construct: expressed in transfected cells; host or cells: CHO cells, stably transfected; membrane preparation
# Sequence (P18825 1-462): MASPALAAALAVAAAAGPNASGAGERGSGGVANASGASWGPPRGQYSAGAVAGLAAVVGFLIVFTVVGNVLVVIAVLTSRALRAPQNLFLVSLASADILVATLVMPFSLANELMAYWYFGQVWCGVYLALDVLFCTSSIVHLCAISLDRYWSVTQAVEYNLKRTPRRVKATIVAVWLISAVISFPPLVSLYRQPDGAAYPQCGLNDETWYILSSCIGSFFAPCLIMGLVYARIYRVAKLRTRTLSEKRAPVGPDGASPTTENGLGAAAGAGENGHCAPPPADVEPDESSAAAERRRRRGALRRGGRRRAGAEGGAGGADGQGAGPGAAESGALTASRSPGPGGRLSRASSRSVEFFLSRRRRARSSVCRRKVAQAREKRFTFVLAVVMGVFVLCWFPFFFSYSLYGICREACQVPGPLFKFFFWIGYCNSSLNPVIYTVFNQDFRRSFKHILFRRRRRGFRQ
# methodSummary: Radioligand binding experiment for hα2C-adrenoceptor ([3H]raulwolscine)
# runConditions: [3H]raulwolscine 1 nM, 60 minutes at 25° C.
Some molecules, each annotated with its measured h-α2C pIC50.
// no unit, no text: just the number

molecule	reportedValue
CN(CCF)Cc1ccc(-n2ccnc(NC3CCN(Cc4ccc5ccccc5c4)CC3)c2=O)cc1	8.1

Ask | Given O=c1c(NC2CCN(Cc3ccc4ccccc4c3)CC2)nccn1-c1ccc(CN2CCC(Oc3cccnc3)CC2)cc1 , state its recorded h-α2C pIC50.
Reply | 8.2

Ask | Proceed to O=C(NCc1ccc(-n2ccnc(NC3CCN(Cc4ccc5ccccc5c4)CC3)c2=O)cc1)C1CCCO1 (racemic)
Reply | 8.1

Ask | Proceed to O=C(NCc1ccc(-n2ccnc(NC3CCN(Cc4ccc5ccccc5c4)CC3)c2=O)cc1)Nc1cc(Cl)ccc1Cl
Reply | 6.7

Ask | Proceed to CC(=O)NCCCC(=O)NCc1ccc(-n2ccnc(NC3CCN(Cc4ccc5ccccc5c4)CC3)c2=O)cc1
Reply | 7.3

Ask | Proceed to O=C(NCc1ccc(-n2ccnc(NC3CCN(Cc4ccc5ccccc5c4)CC3)c2=O)cc1)NCC1CCCCC1
Reply | 7.2

Ask | Proceed to Cl.O=C(CCN1CCC(F)CC1)NCc1ccc(-n2ccnc(NC3CCN(Cc4ccc5ccccc5c4)CC3)c2=O)cc1F
Reply | 8.3

Ask | Proceed to O=C(CC1CCCC1)NCc1ccc(-n2ccnc(NC3CCN(Cc4ccc5ccccc5c4)CC3)c2=O)cc1
Reply | 7.5

Ask | Proceed to O=C(O)C(F)(F)F.O=C1c2ccccc2C(=O)N1CCCn1ccnc(NCCN2CCN(Cc3ccc4ccccc4c3)CC2)c1=O
Reply | 7.5

Ask | Proceed to COC(=O)CCNC(=O)NCc1ccc(-n2ccnc(NC3CCN(Cc4ccc5ccccc5c4)CC3)c2=O)cc1
Reply | 7.5

====

# assayedTarget: 5HT-transporter (Homo sapiens, UniProt P31645)
# Construct: Human platelet membranes (Oceanix Biosciences Corporation, Hanover, Md., USA) were thawed; tissue Oceanix Biosciences Corporation, Hanover, Md., USA; host or cells: human platelet membranes
# Sequence (P31645 whole entry): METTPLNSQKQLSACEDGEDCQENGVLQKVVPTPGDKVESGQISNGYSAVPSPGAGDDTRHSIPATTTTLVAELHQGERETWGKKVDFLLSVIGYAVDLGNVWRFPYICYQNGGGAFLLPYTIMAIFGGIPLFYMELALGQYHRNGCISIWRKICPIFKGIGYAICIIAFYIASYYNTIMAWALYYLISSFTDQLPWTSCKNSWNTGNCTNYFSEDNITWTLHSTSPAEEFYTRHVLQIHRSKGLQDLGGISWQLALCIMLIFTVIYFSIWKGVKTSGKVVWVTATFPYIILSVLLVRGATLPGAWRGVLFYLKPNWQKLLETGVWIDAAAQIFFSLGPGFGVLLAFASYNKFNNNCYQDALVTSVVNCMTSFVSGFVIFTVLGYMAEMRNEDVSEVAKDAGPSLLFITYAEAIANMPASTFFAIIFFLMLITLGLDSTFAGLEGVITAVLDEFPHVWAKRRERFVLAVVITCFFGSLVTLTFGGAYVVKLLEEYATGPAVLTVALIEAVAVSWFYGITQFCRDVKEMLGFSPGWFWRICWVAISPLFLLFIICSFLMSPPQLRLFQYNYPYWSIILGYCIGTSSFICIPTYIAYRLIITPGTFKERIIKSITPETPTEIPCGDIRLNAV
# methodSummary: Binding experiment for the 5HT-transporter ([3H]paroxetine, human platelet membranes)
# runConditions: [3H]paroxetine 0.5 nM, 60 min at 25° C., read-out: h-5HTT pIC50 (converted)
# Experimental: The interaction of the compounds of Formula (I) with α2C-adrenoceptor receptors was assessed in in vitro radioligand binding experiments. […] When equilibrium of binding is reached, the receptor bound radioactivity is separated from the non-bound radioactivity, and the receptor- or transporter-bound activity is counted. The interaction of the test compounds with the receptor is assessed in competition binding experiments. […]
Cut-off 20 nM on IC50: below means Y, at or above means N.

smi	className
O=c1c(N2CCN(Cc3cccc4ccccc34)CC2)nccn1Cc1ccccc1	N
O=c1c(NC2CCN(Cc3ccc4ccccc4c3)CC2)nccn1CCC1OCCO1	N
CCN(CC)CCC(=O)NCc1ccc(-n2ccnc(NC3CCN(Cc4ccc5ccccc5c4)CC3)c2=O)cc1	Y
O=c1[nH]c(-c2cccc(CN3CCOCC3)c2)c(Cl)nc1NC1CCN(Cc2ccc3ccccc3c2)CC1	N
COC(=O)CCCC(=O)NCc1ccc(-n2ccnc(NC3CCN(Cc4ccc5ccccc5c4)CC3)c2=O)cc1	Y

Ask | Is IC50 of Cn1ccnc1CN1CCc2ccc(-n3ccnc(NC4CCN(Cc5ccc6ccccc6c5)CC4)c3=O)cc2C1 strictly below 20 nM?
Reply | Y

Ask | Proceed to O=C(NCCCn1ccnc(NC2CCN(Cc3ccc4ccccc4c3)CC2)c1=O)c1ccccc1
Reply | N

Ask | Proceed to O=C(NCc1ccc(-n2ccnc(NC3CCN(Cc4ccc5ccccc5c4)CC3)c2=O)cc1)c1ccncc1
Reply | Y

Ask | Proceed to O=C(c1ccc(-n2ccnc(NC3CCN(Cc4ccc5ccccc5c4)CC3)c2=O)cc1)N1CCOCC1
Reply | N

Ask | Proceed to O=C(CCc1ccccc1)NCc1ccc(-n2ccnc(NC3CCN(Cc4ccc5ccccc5c4)CC3)c2=O)cc1
Reply | Y

Ask | Proceed to COc1ccc(Cn2c(-c3cccc(CN4CCC(F)CC4)c3)c(Cl)nc(NC3CCN(Cc4ccc5ccccc5c4)CC3)c2=O)cc1
Reply | N

Just for reference, patent US20080269251A1 is where these values come from.
